SYSTEM NAME: CETP (Homo sapiens, UniProt P11597)
Construct: made in house; host or cells: CHO cells (serum-free conditioned medium)
Sequence (P11597 18-493): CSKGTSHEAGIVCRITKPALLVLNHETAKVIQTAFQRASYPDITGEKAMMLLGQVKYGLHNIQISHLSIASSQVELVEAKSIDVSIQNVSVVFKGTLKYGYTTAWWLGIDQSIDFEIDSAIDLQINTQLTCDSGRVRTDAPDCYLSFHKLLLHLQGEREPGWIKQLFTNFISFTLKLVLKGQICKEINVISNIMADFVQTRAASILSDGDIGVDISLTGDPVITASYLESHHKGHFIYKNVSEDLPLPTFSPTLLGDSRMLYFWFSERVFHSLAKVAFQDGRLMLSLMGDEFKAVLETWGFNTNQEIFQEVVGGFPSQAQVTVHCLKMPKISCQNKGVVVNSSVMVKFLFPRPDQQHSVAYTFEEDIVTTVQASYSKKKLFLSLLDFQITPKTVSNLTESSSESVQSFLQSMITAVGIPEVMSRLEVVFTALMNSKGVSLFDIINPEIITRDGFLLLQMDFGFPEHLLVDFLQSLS
ASSAY: CETP activity in vitro: transfer of [3H]CE from HDL donor to LDL acceptor particles
Format: biochemical
CONDITION NOTES: Table 8; read-out: IC50
ASSAY ENDPOINT: IC50 (µM)

Examples with answers:
CCOC(=O)c1c(C(F)(F)F)nc(C(F)F)c(C(F)c2ccc(Cl)cc2)c1-c1ccc(F)cc1 (stereo not drawn) [Compound 254]	55
O=Cc1c(C(F)F)nc(C(F)(F)F)c(COCc2ccccc2)c1-c1ccc(F)cc1	4.5

(1) C=CC(O)c1c(C(F)F)nc(C(F)(F)F)c(C(=O)c2ccc(C(F)(F)F)cc2)c1-c1ccc(F)cc1 (stereo not drawn)
(2) OCc1c(C(F)(F)F)nc(C(F)F)c(C(F)c2ccc(C(F)(F)F)cc2)c1-c1ccc(F)cc1 (stereo not drawn) [Compound 249]
(3) CC(C)CC(O)c1c(C(F)F)nc(C(F)(F)F)c(C(F)c2ccc(C(F)(F)F)cc2)c1-c1ccc(F)cc1 (stereo not drawn)
(4) CC(C)c1ccc(Cc2c(C(F)F)nc(C(F)(F)F)c(C=O)c2-c2ccccc2)cc1
(5) CCOC(=O)c1c(C(F)(F)F)nc(C(F)F)c(C(O)c2ccc(Cl)cc2)c1-c1ccccc1 (stereo not drawn)
Task field, ranking: reported IC50, descending order. Enter labels, ranked according to the request.
5, 3, 1, 4, 2

The reported numbers originate from patent US6794396B2.
